Biological target: CpsB (Streptococcus pneumoniae, UniProt Q9AHD4)
Sequence (Q9AHD4 whole entry, looked up): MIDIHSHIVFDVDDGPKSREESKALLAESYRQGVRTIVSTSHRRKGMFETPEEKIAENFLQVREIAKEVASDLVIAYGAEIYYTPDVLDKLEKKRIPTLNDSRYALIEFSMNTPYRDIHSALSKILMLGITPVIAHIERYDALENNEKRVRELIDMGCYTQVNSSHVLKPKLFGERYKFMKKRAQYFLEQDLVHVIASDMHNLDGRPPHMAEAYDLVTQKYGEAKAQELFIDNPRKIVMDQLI
Assay Metric: IC50 (µM)
Write the answer as a number in µM, unit excluded.

stdin: Tell me its IC50 on CpsB (Streptococcus pneumoniae, UniProt Q9AHD4): CC(C)=CCC/C(C)=C/CC/C(C)=C/CC/C(C)=C/Cc1cc(OS(=O)(=O)O)ccc1O
stdout: 5.21
